Target: TRKA (Homo sapiens (Human))
Sequence (P04629 441-796): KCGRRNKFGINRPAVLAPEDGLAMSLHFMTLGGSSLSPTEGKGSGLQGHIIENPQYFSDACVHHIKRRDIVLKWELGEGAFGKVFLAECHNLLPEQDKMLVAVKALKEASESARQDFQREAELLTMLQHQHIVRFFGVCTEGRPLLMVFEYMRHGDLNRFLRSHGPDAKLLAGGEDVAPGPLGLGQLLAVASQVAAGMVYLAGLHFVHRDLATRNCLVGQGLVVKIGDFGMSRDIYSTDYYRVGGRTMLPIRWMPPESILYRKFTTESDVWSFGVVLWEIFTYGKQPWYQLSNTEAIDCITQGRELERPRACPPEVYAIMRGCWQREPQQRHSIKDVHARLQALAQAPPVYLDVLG
Test: Isolated TRK enzyme assay (HTRF KinEASE-TK), TRKA
Type: biochemical
Details: read-out: Trka enzyme (IC50)
Kindly state IC50 for each of the entries shown.
One number for each entry, in nM.

Solved entries:
CC(C)n1cc(C(=O)c2cncc(NC(=O)C(CO)c3ccc(Cl)cc3)c2)c2cncnc21 (centres unmarked) = 92.7
CC(C)n1cc(C(=O)c2cncc(NC(=O)Cn3ccnc3-c3ccccc3)c2)c2cncnc21 = 3540
COc1cc(F)cc2ccn(CC(=O)Nc3cncc(C(=O)c4cn(C(C)C)c5ncncc45)c3)c12 = 37.4
Cc1ccncc1C(=O)Nc1cncc(C(=O)c2cn(C(C)C)c3ncncc23)c1 = 9800

Please turn your attention to the following entry.
Give IC50 for CC(C)n1cc(C(=O)c2cncc(NC(=O)Cc3cncc(Br)c3)c2)c2cncnc21
51
